Experiment: protein stability index of a GFP-peptide fusion (GPS, HEK-293T) (PSI 1-6); higher = more stable;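 note: 24-mer peptide tiles fused after GFP, lentivirally expressed, FACS-sorted into six equal bins by GFP/DsRed ratio, decoded by Illumina sequencing, PSI is the read-weighted mean bin number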
Stated Conditions: treatment: MLN4924 1 uM, 8 h; c terminus: a fixed tail appended
Property Measured: protein stability index
Just the number, please, no unit attached.

# count of solved cases: 3
INSERT INTO assay_data (chain, readout_number) VALUES
  ('SPSTRGSPNRSLPSPGVLCGSARP [ATF4]', 4.88),
  ('LQGVRLSENVVNRMKEPSSPPPAP [CHCHD6]', 4.94),
  ('LFTDRMATRSTTQSNRTSRLIGKK [WEE1]', 4.4);

Notebook: LLQTEPQNNQAKELERLIDKAMKK [FIS1] , protein stability index read as 4.27

Notebook: QYNRSSNSNGGNLNSPPGPHSAKT [CDC14A] , protein stability index read as 4.33

Notebook: ERWLQKQGKYSGVGLLDHMVSIYL [RNF180] , protein stability index read as 2.59

* * *

Experiment: protein stability index of a GFP-peptide fusion (GPS, HEK-293T) (PSI 1-6); higher = more stable
Stated Conditions: treatment: MLN4924 1 uM, 8 h; c terminus: a fixed tail appended
Property: protein stability index; scope: individual sequences
Just the number, please, no unit attached.

# count of solved cases: 5
INSERT INTO measurements (chain, readout_number) VALUES
  ('LNFWNKQDTLELESPSLTSTPVCS [MYBL2]', 3.63),
  ('QTSSSSSQSETSSAVSTPSPVTRT [DLC1]', 5.28),
  ('LHHKRLAKECMLQEENKSLREENK [CBY2]', 4.89),
  ('DEELHLLIISCRKLFYFKIWAFLD [FBXO39]', 2.47),
  ('HYCNSSTDRRVLLMFLDICSELNK [SPACA9]', 2.21);

Notebook: CRERWHNHLNPEVKKSCWTEEEDR [MYBL2] , protein stability index read as 4.34

Notebook: DPEVFKEMMRFIYTGRAPNLDKMA [SPOPL] , protein stability index read as 2.41

* * *

Experiment: protein stability index of a GFP-peptide fusion (GPS, HEK-293T) (PSI 1-6); higher = more stable
Stated Conditions: treatment: MLN4924 1 uM, 8 h; c terminus: a fixed tail appended
I would appreciate it if you labelled entries fulfilled when protein stability index is 3 or higher, otherwise not fulfilled.

Check out these entries, answers already filled in.
INSERT INTO assay_data (chain, class_assignment) VALUES
  ('MIPGFRDLTSEDQIVLLKSSAIEV [VDR]', 'not fulfilled'),
  ('NDPEKNFLTTAIRPHGIFGPRDPQ [NSDHL]', 'fulfilled'),
  ('KDNEFTSKPWHWPINYQGLRFSGV [POMT2]', 'not fulfilled');

# next sequence below
IN: Kindly determine if protein stability index recorded for MVKPLLHMLLNTTLNIKETDSKEL [ZBED1] is above or exactly 3.
OUT: not fulfilled

* * *

Experiment: protein stability index of a GFP-peptide fusion (GPS, HEK-293T) (PSI 1-6); higher = more stable
Stated Conditions: treatment: DMSO; c terminus: a fixed tail appended
Property: protein stability index; scope: individual sequences
Just the number, please, no unit attached.

INSERT INTO results (chain, readout_number) VALUES
  ('APLVKTLEKEEEKDLVMYSKCQRL [CDC25B]', 4.69),
  ('FQNRRMKHKRQMQDPQLHSPFSGS [VENTX]', 3.3),
  ('LEEGKHSSHEVKALGAMWKLHKSQ [TRIM9]', 3.83),
  ('PAWYVAACRANVKSGAIMSALSDT [PPFIA4]', 2.58),
  ('EISGPLTSANKITLVSSGSGTMGA [FLOT1]', 3.46),
  ('VVKVLLESGASIEDHNENGHTPLM [ANKRD17]', 3.17),
  ('QLAKELGATYLELHSLDDFYIGKY [RHOBTB3]', 2.56),
  ('ESKDYLSLYLLLVSCPKSEVRAKF [SPOPL]', 2.92);

Notebook: MERPLCSHLCSCLAMLALLSPLSL [LOXL2] , protein stability index read as 3.16

Notebook: RQLLCLIDYYESKIRKIHTQRQYK [CEP70] , protein stability index read as 2.44

Notebook: KIWPEIKVPRPDALDNESWGFVHP [RETREG3] , protein stability index read as 2.68

Notebook: MDSFKVVLEGPAPWGFRLQGGKDF [PDLIM7] , protein stability index read as 2.1

Notebook: GGTSVGSLGVPGSVGGVPGGTGSG [ZBTB22] , protein stability index read as 4.41

Notebook: LQYILAQIGFSVGLGNIWRFPYLC [SLC6A17] , protein stability index read as 2.27

Notebook: KMNGSHRDQGSSALSGVGGIRLPN [IKZF1] , protein stability index read as 4.1

Notebook: ALSCHEQEMVVSSLVIGALLASLT [SLC2A12] , protein stability index read as 3

Notebook: VLSVSKILHIPQVTKLCVQFLNDQ [KLHL14] , protein stability index read as 2.52

Notebook: EVVVAESELQKELKKVKTAHSNDG [DPCD] , protein stability index read as 5.18

Notebook: RRYVARLEMRRRCTWSIFQSIEYA [PPEF2] , protein stability index read as 1.86

* * *

Property: protein stability index; scope: individual sequences
Experiment: protein stability index of a GFP-peptide fusion (GPS, HEK-293T) (PSI 1-6); higher = more stable
Stated Conditions: treatment: MLN4924 1 uM, 8 h; c terminus: a fixed tail appended

# count of solved cases: 2
INSERT INTO measurements (chain, result) VALUES
  ('EDYPAALPNHKPKGTFKDYVRDRA [ETS1]', 4.62),
  ('RDVPESPQHAADTPKSGEPRVPEE [YJU2B]', 5.53);

Notebook: TQESTFQELCEGLLEESDGEGEPG [NOP53] , protein stability index read as 5.51

Notebook: EIPTGKKDHECSECGKTFIYNSHL [ZNF232] , protein stability index read as 3.49

Notebook: EEEEEEEEAEAGEEAVPEEEGPTV [CHGA] , protein stability index read as 5.4

Notebook: FTTLTDRELEEYRREVERKQKGSE [ADD1] , protein stability index read as 4.72

Notebook: SATSKLIHPDEDISLEERRAQLPK [ZNF207] , protein stability index read as 5.08

Notebook: AIAKQALKKPIKGKQAPRKKAQGK [KMT5A] , protein stability index read as 4.02

Notebook: TTDPDLILEVLRSSPMVQVDEKGE [LARP4] , protein stability index read as 4.73

Notebook: PPLSHIMAQPLCIRALLNLHTDVG [NEK8] , protein stability index read as 2.03

Notebook: FQQDTKGLVDFRDVALALAALDGG [LPCAT4] , protein stability index read as 2.71

Notebook: RGLGSQASTVTEIVKQQDPLVYKA [ACSBG2] , protein stability index read as 4.31

* * *

Experiment: protein stability index of a GFP-peptide fusion (GPS, HEK-293T) (PSI 1-6); higher = more stable
Stated Conditions: treatment: DMSO; c terminus: a fixed tail appended
Just so you know, the groups by protein stability index go like this: bin 0: < 3; bin 1: ≥ 3 and < 4; bin 2: ≥ 4

Check out these entries, answers already filled in.
INSERT INTO results (chain, class_assignment) VALUES
  ('FPYVVLACFLVRGLLLRGAVDGIL [SLC6A17]', 'bin 0'),
  ('ADFEQKMLDSALRFQAMEETHLRH [FCHO1]', 'bin 1'),
  ('VISCEFAHNSNWYITFQSDTDAQQ [LARP4]', 'bin 0'),
  ('PHFQPDASLLQPVTPLGTSRWRKI [NCF4]', 'bin 1'),
  ('EKSGFSQHQNKSPPKVKAEDGMQC [DLC1]', 'bin 2'),
  ('RFLRAYREGALRAALQRSLAAALA [TRADD]', 'bin 0');

IN: Exam item: assign ETDSEMNSQESRSDLEDMEEEEGT [SMG5] to the correct category.
OUT: bin 2

IN: Exam item: assign IDVSNPQTVGVGRGRFTTYEIRVK [SNX3] to the correct category.
OUT: bin 0

IN: Exam item: assign NSNQATDIMETSGWKSMIQSHPHL [SPOPL] to the correct category.
OUT: bin 1

IN: Exam item: assign EEADFLSAETGSPRLTMHYPCLEK [IRX6] to the correct category.
OUT: bin 2

IN: Exam item: assign IQFWNSRQSLEGLSVRSVFFGVFQ [CLPTM1] to the correct category.
OUT: bin 0

IN: Exam item: assign SSEHVTESVADLLALEEPVDYKQS [SLC6A17] to the correct category.
OUT: bin 2

* * *

Experiment: protein stability index of a GFP-peptide fusion (GPS, HEK-293T) (PSI 1-6); higher = more stable
Stated Conditions: treatment: DMSO; c terminus: a fixed tail appended
Property: protein stability index; scope: individual sequences
Just the number, please, no unit attached.

INSERT INTO assay_data (chain, property_measured, readout_number) VALUES
  ('ITRPSPRRSNSPDKFKRPTPPPSP [CCDC6]', 'protein stability index', 5.18),
  ('QLEQPEKMPVLKAEASHYNSDLNN [RHOBTB3]', 'protein stability index', 4.83);

# input for lookup
Notebook: SAFGNVKLVVHDCPVWDIFDSDWY [RHOBTB3] , protein stability index read as 2.17

Just for reference, the supplement of paper PMC10567573 is where these values come from.
